assay: Tigecycline plasma PK after IV bolus in anesthetized rats; format: in vivo; settings: female, Sprague-Dawley, rat, IV bolus 0.64 mg/kg, PBS (RA851), 240 min
QUANTITY_KIND: concentration at 240 min (ng/mL)
Report the figure in ng/mL without appending any unit label.

# get_value(readout='concentration at 240 min', item= CN(C)c1cc(NC(=O)CNC(C)(C)C)c(O)c2c1C[C@H]1C[C@H]3[C@H](N(C)C)C(O)=C(C(N)=O)C(=O)[C@@]3(O)C(O)=C1C2=O )
116

---

experiment: Tigecycline plasma PK and % F after PO enteric-coated capsule in dogs; type: in vivo, Beagle dogs; settings: female, beagle, dog, plasma, po, 30 mg, Tigecycline Plasma Concentration, 3.0 hr; PO 30 mg unformulated enteric-coated capsule, SC430; individual dogs
QUANTITY_KIND: concentration at 3 hr (ng/mL)
Return type: number; implicit unit ng/mL.

Look up concentration at 3 hr: CN(C)c1cc(NC(=O)CNC(C)(C)C)c(O)c2c1C[C@H]1C[C@H]3[C@H](N(C)C)C(O)=C(C(N)=O)C(=O)[C@@]3(O)C(O)=C1C2=O [Tigecycline]
0

---

assay: Tigecycline plasma PK and % F after PO enteric-coated capsule in dogs; type: in vivo, Beagle dogs; details: female, beagle, dog, plasma, po, 45 mg, Tigecycline Plasma Concentration, Time (min) 24.0; PO 45 mg enteric-coated capsule with 500 mg CA and 100 mg LLC, SC430; individual dogs
QUANTITY_KIND: concentration at 24 min

Query (molecule): CN(C)c1cc(NC(=O)CNC(C)(C)C)c(O)c2c1C[C@H]1C[C@H]3[C@H](N(C)C)C(O)=C(C(N)=O)C(=O)[C@@]3(O)C(O)=C1C2=O ; field requested: concentration at 24 min
0 ng/mL

---

test: Tigecycline plasma PK and % F after intraduodenal (ID) injection in anesthetized rats; assay type: in vivo, Sprague-Dawley Rats; conditions: female, Sprague-Dawley, rat, plasma, other: intraduodenal bolus injection, 4.8 mg/kg, pH 3.5, ID, 400 mM CA (pH 3.5), 26 mM LLC, 4.8 mg/kg (RA851), parent Tigecycline peak only; 0 min
QUANTITY_KIND: concentration at 0 min
Write the figure, then the unit, nothing else.

Give its concentration at 0 min value. Item: CN(C)c1cc(NC(=O)CNC(C)(C)C)c(O)c2c1C[C@H]1C[C@H]3[C@H](N(C)C)C(O)=C(C(N)=O)C(=O)[C@@]3(O)C(O)=C1C2=O
0 ng/mL

---

test: Tigecycline plasma PK and % F after PO enteric-coated capsule in dogs; format: in vivo, Beagle dogs; details: female, beagle, dog, plasma, po, 30 mg, Tigecycline Plasma Concentration, Time (min) 0.0; PO 30 mg enteric-coated capsule with 500 mg CA and 100 mg LLC, SC430; mean
QUANTITY_KIND: concentration at 0 min

Please look up its concentration at 0 min: CN(C)c1cc(NC(=O)CNC(C)(C)C)c(O)c2c1C[C@H]1C[C@H]3[C@H](N(C)C)C(O)=C(C(N)=O)C(=O)[C@@]3(O)C(O)=C1C2=O [Tigecycline]
0 ng/mL

---

test: Tigecycline plasma PK and % F after intraduodenal (ID) injection in anesthetized rats; format: in vivo, Sprague-Dawley Rats; details: female, Sprague-Dawley, rat, plasma, 4.8 mg/kg, ID, PBS, 4.8 mg/kg (RA851)
QUANTITY_KIND: Tmax (h)
# value in h; strip the unit string

Which Tmax is listed for CN(C)c1cc(NC(=O)CNC(C)(C)C)c(O)c2c1C[C@H]1C[C@H]3[C@H](N(C)C)C(O)=C(C(N)=O)C(=O)[C@@]3(O)C(O)=C1C2=O ?
1.5
